tested on: U2OS; experiment: Incucyte cell viability with U2OS; assay type: toxicity, cell-based; settings: human, 6 h, 10 µM, compound concentration 10 uM, replicate number 1; further: unitless GR value; below 1 slowed growth and below 0 cell loss
PROPERTY_LABEL: Growth Rate
# respond with the number and nothing more

Kindly note: U2OS, Cc1c(N2CCCC2)nc2ccc(Br)cc2c1C(=O)NC[C@H](CCC(=O)O)c1ccccc1Cl , Growth Rate value reported: 0.7

Kindly note: U2OS, COc1cc2c(NC3CCN(C(C)C)CC3)nc(C3CCCCC3)nc2cc1OCCCN1CCCC1 , Growth Rate value reported: 0.4

Kindly note: U2OS, Cn1nccc1-c1ccc(Sc2cccc(C3(C(N)=O)CCOCC3)c2)cc1 , Growth Rate value reported: 0.7

Kindly note: U2OS, COc1cc(CN(CCN)C(=O)N[C@@H](C)c2ccccc2)ccc1OCc1ccccc1.Cl , Growth Rate value reported: 0.64

Kindly note: U2OS, Cl.NCC(O)c1ccc(O)cc1 (stereo not drawn) [OCTOPAMINE HYDROCHLORIDE] , Growth Rate value reported: 0.64

Kindly note: U2OS, NC(=O)OC[C@H](NC(=O)Cn1nc(-c2ccc(Cl)cc2)n(C[C@H](O)C(F)(F)F)c1=O)c1cccc(C(F)(F)F)c1 , Growth Rate value reported: 0.83

Kindly note: U2OS, CCCNc1ccc2ncc(-c3ccncc3)n2n1 , Growth Rate value reported: 0.96

Kindly note: U2OS, Nc1nc2cc(-c3cc(Cl)ccc3Oc3cc(F)c(S(=O)(=O)Nc4ncns4)cc3F)ccc2[nH]1 , Growth Rate value reported: 0.51

Kindly note: U2OS, COc1cc(N2CCC(N3CCN(C)CC3)CC2)ccc1Nc1ncc(Cl)c(Nc2ccccc2S(=O)(=O)C(C)C)n1 , Growth Rate value reported: -0.18

Kindly note: U2OS, O=C(O)CCCCCC[C@@H]1C(=O)NC(=O)N1CCC(O)C1CCCCC1 (stereo partly drawn) , Growth Rate value reported: 0.54

Kindly note: U2OS, CNC1(C)C2CCC(C2)C1(C)C.Cl (stereo not drawn) [MECAMYLAMINE HYDROCHLORIDE] , Growth Rate value reported: 1

Kindly note: U2OS, Cc1cc([N+](=O)[O-])c(NS(=O)(=O)c2cccc(C(=O)O)c2)cc1-c1cccnc1 , Growth Rate value reported: 0.68

Kindly note: U2OS, Oc1c(CN2CCCC2)cc(COCc2ccccc2)c2cccnc12 , Growth Rate value reported: 0.93

Kindly note: U2OS, NCC1CCC(CNc2nc(NCc3ccccc3OC(F)(F)F)ncc2[N+](=O)[O-])CC1 (stereo not drawn) , Growth Rate value reported: 0.45

Kindly note: U2OS, Nc1c(CC(=O)O)cccc1C(=O)c1ccc(Br)cc1 , Growth Rate value reported: 0.2

Kindly note: U2OS, CCC(F)(F)c1cc(N2CCC(S(C)(=O)=O)CC2)nc2sc(C(N)=O)c(N)c12 , Growth Rate value reported: 0.71

Kindly note: U2OS, CCN(C)S(=O)(=O)Nc1cccc(-c2ccc3c(NC(=O)C4CC4)n[nH]c3c2)c1 , Growth Rate value reported: -0.66

Kindly note: U2OS, O=C(Nc1ccccc1Cl)c1cnc2ccc(C3CCNCC3)cn12.O=C(O)C(=O)O , Growth Rate value reported: -0.44

Kindly note: U2OS, O=c1cc(-c2ccccc2)oc2c1ccc1ccccc12 , Growth Rate value reported: -0.07

Kindly note: U2OS, CCN(CC)C/C=C/C(=O)Nc1cc2c(Nc3ccc(F)c(Cl)c3)ncnc2cc1OCC1CC1 , Growth Rate value reported: 0.31

Kindly note: U2OS, CCc1ccc(N(CC(C)C)S(=O)(=O)c2ccc(OCC3CCOCC3)c(CO)c2)cc1 , Growth Rate value reported: 0.9

Kindly note: U2OS, O=C(Nc1ccccc1Br)N[C@@H]1CCN(c2ccc(C(F)(F)F)cn2)C1 , Growth Rate value reported: 0.99

Kindly note: U2OS, CNC(=O)c1cccc(-c2ccc3c(N4CCOC[C@@H]4C)nc(N4CCOC[C@@H]4C)nc3n2)c1 , Growth Rate value reported: 0.98

Kindly note: U2OS, C[C@@H](CN1CC[C@@]2(C)c3cccc(O)c3C[C@@H]1C2(C)C)OCc1ccccc1.Cl , Growth Rate value reported: 0.53

Kindly note: U2OS, CO[C@H](C)CN1CC[C@@]2(C)c3ccc(O)cc3C[C@@H]1C2(C)C.Cl , Growth Rate value reported: 0.63

Kindly note: U2OS, CC[C@@H](Nc1c(C#N)c(-c2ccc(-c3cccc(C)c3F)cc2)nc2cnccc12)C(=O)O , Growth Rate value reported: 0.82

Kindly note: U2OS, Cc1cccc(F)c1C(=O)Nc1cnc(-c2cc3c(cc2Cl)OC(F)(F)O3)cn1 , Growth Rate value reported: 0.26

Kindly note: U2OS, Nc1ccc(S(=O)(=O)Nc2ccnn2-c2ccccc2)cc1 , Growth Rate value reported: 0.27

Kindly note: U2OS, COc1c(NC(=O)c2cc3cccc(Oc4ccnc(C(=O)N5CCN(C)CC5)c4)c3n2C)cc(C(C)(C)C)cc1NS(C)(=O)=O , Growth Rate value reported: 0.82

Kindly note: U2OS, Cn1c(SCc2ccc(C(C)(C)C)cc2)nc(N)cc1=O , Growth Rate value reported: 0.7

Kindly note: U2OS, NC1=NC(=O)/C(=C2\CCNC(=O)c3[nH]c4ccccc4c32)N1 , Growth Rate value reported: 0.43

Kindly note: U2OS, CC(C)N(C(=O)C1CCOCC1)c1cc(F)c(Oc2ncc(Cn3nccn3)cc2C(F)(F)F)cc1C(=O)O , Growth Rate value reported: 0.91

Kindly note: U2OS, O=C(CNC(=O)c1ccc(-c2ccccc2)cc1)NC1CCCc2ccccc21 (stereo not drawn) , Growth Rate value reported: 0.38
